Taken from patent US20090012011A1.

# target: TRPV4 channel receptors (Homo sapiens)
# Construct: obtained using this method in human articular chondrocytes; endogenous in cells
# Sequence (Q9HBA0 whole entry): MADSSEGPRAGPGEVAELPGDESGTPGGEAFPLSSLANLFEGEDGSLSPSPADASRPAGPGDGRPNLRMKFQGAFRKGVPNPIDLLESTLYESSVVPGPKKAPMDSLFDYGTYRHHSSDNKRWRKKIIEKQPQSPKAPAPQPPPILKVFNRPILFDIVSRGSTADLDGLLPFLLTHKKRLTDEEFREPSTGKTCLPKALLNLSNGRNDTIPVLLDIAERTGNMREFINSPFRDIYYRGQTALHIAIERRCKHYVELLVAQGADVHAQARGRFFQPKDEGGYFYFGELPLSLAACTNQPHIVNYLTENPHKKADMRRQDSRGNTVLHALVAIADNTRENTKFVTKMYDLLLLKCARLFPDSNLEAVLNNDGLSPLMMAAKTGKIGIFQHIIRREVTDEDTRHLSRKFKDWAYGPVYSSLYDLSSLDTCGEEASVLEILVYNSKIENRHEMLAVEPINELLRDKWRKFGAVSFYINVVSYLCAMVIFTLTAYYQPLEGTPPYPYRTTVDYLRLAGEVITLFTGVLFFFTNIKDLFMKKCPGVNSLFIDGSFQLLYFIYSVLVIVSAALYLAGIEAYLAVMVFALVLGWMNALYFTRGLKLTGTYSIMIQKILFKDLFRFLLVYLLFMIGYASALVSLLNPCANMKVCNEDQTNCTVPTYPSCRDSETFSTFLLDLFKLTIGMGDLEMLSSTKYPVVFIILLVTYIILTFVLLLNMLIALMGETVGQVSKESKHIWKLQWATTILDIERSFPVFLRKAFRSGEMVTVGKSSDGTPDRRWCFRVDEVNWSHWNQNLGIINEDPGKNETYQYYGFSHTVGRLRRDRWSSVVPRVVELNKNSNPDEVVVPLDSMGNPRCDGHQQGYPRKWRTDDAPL
# assay-name: Ca2+ influx, Fura-2 fluorescence on FlexStation, human articular chondrocytes
pEC50: −log10 of the molar value.
experimental-readout: pEC50

Examples from the recorded data:
compound	target	pEC50
CC(C)C[C@H](NC(=O)c1cc2ccccc2s1)C(=O)NC[C@@H]1CN(S(=O)(=O)c2ccc(F)cc2C(F)(F)F)C[C@@H]1O (single isomer, unassigned) [Example 6]	TRPV4 channel receptors (Homo sapiens)	5.00 to 6.00
CC(C)C[C@H](NC(=O)c1cc2ccccc2s1)C(=O)NC[C@H]1CN(S(=O)(=O)c2ccc(Cl)cc2Cl)C[C@H]1O (single isomer, unassigned) [Example 3]	TRPV4 channel receptors (Homo sapiens)	7.05 to 7.52

Turning now to a further compound:
Incoming: Which pEC50 reading was recorded for the compound CC(C)C[C@H](NC(=O)c1cc2ccccc2s1)C(=O)NC[C@@H]1CN(S(=O)(=O)c2ccc(F)cc2Cl)C[C@@H]1O (single isomer, unassigned) [Example 2] ?
Outgoing: 6.00 to 7.00
